Target: HLA-A*0201 (Homo sapiens, UniProt P04439, D140Y/D185E/D98H/E176V/E277Q/G131W/G231S/I119V/I121R/I166T/I218V/L300P/L318F/N151K/N90K/P208A/P217A/Q86G/Q94H/R138H/R169H/T345S)
Experiment: HLA class I binding assay, purified HLA, inhibition of 125I-labelled probe peptide
Conditions: A*[…], A2 supermotif cross-reactive binding data
metric.name: IC50

INSERT INTO results (compound, result) VALUES
  ('CC(C)C[C@H](NC(=O)[C@H](Cc1ccccc1)NC(=O)[C@@H](NC(=O)[C@@H](N)C(C)C)C(C)C)C(=O)N[C@H](C(=O)N[C@@H](CC(C)C)C(=O)N[C@@H](CO)C(=O)N[C@H](C(=O)N[C@H](C(=O)N[C@@H](Cc1c[nH]c2ccccc12)C(=O)N[C@H](C(=O)O)C(C)C)[C@@H](C)O)C(C)C)[C@@H](C)O [Peptide 63.0185]', '89 nM'),
  ('CC(C)C[C@H](NC(=O)[C@@H](NC(=O)[C@H](CO)NC(=O)[C@H](CCCNC(=N)N)NC(=O)[C@H](CC(=O)O)NC(=O)[C@H](CC(C)C)NC(=O)[C@H](Cc1c[nH]c2ccccc12)NC(=O)[C@H](Cc1ccccc1)NC(=O)[C@H](Cc1ccccc1)NC(=O)[C@H](CC(C)C)NC(=O)[C@@H](N)CC(C)C)C(C)C)C(=O)O [Peptide 63.0139]', '65 nM'),
  ('CC(C)C[C@H](NC(=O)[C@H](CO)NC(=O)[C@@H](NC(=O)[C@H](CS)NC(=O)[C@H](CCC(N)=O)NC(=O)[C@H](CC(C)C)NC(=O)[C@@H](N)CO)C(C)C)C(=O)N[C@@H](Cc1c[nH]cn1)C(=O)N[C@@H](CC(C)C)C(=O)N[C@H](C(=O)O)C(C)C [Peptide 1418.52]', '13 nM');

* * *

Biological target: HLA-A*0202 (Homo sapiens, UniProt P04439, D140Y/D185E/D98H/E176V/E277Q/G131W/G231S/I119L/I121R/I166T/I218V/L180W/L300P/L318F/N151K/N90K/P208A/P217A/Q67R/Q86G/Q94H/R138H/R169H/T345S)
Experiment: HLA class I binding assay, purified HLA, inhibition of 125I-labelled probe peptide
Settings: A2 supermotif cross-reactive binding data
metric.name: IC50

INSERT INTO assay_data (compound, metric_name, result) VALUES
  ('CC(C)C[C@H](NC(=O)[C@@H](NC(=O)[C@@H](NC(=O)[C@H](Cc1ccccc1)NC(=O)[C@H](CCCCN)NC(=O)[C@H](CC(C)C)NC(=O)[C@H](CCC(=O)O)NC(=O)[C@H](CCCCN)NC(=O)[C@H](C)NC(=O)[C@H](CC(C)C)NC(=O)[C@@H](N)C(C)C)C(C)C)[C@@H](C)O)C(=O)O [Peptide 63.0142]', 'IC50', '8.1 nM'),
  ('CC[C@H](C)[C@H](NC(=O)[C@H](Cc1c[nH]c2ccccc12)NC(=O)[C@@H](NC(=O)[C@@H](NC(=O)[C@H](CO)NC(=O)[C@H](CC(C)C)NC(=O)[C@@H](N)[C@@H](C)O)C(C)C)[C@@H](C)O)C(=O)NCC(=O)N[C@H](C(=O)O)C(C)C [Peptide 60.0217]', 'IC50', '4.9 nM');
